Carbonic anhydrase 2 (Homo sapiens) data, read-out IC50
Report the figure in nM without appending any unit label.

In the examples that follow, each entry is paired with its recorded IC50.
[
  {
    "compound": "NS(=O)(=O)c1cc2c(O)cccc2s1",
    "outputUnit": "nM",
    "number": 12
  },
  {
    "compound": "COCc1ccc2sc(S(N)(=O)=O)cc2c1",
    "outputUnit": "nM",
    "number": 9
  },
  {
    "compound": "CC(=O)Nc1ccc2cc(S(N)(=O)=O)sc2c1",
    "outputUnit": "nM",
    "number": 4.8
  },
  {
    "compound": "NS(=O)(=O)c1cc2ccc(OS(=O)(=O)O)cc2s1",
    "outputUnit": "nM",
    "number": 6.8
  },
  {
    "compound": "COc1ccc2cc(S(N)(=O)=O)sc2c1",
    "outputUnit": "nM",
    "number": 8.8
  }
]

Query string: Record request: IC50 value, item NS(=O)(=O)c1cc2cc(CO)ccc2s1
Result string: 9

Query string: Thanks! And COc1cccc2cc(S(N)(=O)=O)sc12 ?
Result string: 50

Query string: Field entry: CN(C)Cc1ccc2sc(S(N)(=O)=O)cc2c1
Result string: 12

Query string: And what about the compound NS(=O)(=O)c1cc2ccc(OP(=O)(O)O)cc2s1 ?
Result string: 100

Query string: Repeat for the following compound: Nc1ccc2cc(S(N)(=O)=O)sc2c1
Result string: 10

Query string: Request: CC(C)(C)N1CC(COc2ccc3cc(S(N)(=O)=O)sc3c2)OC1=O (centres undefined)
Result string: 8

Query string: Follow-up entry: NS(=O)(=O)c1cc2ccccc2s1
Result string: 5.2

Query string: Next: COc1ccc2sc(S(N)(=O)=O)cc2c1
Result string: 23

---

Biological target: Carbonic anhydrase 2 (Homo sapiens)
Test: Concentration of inhibitor required to reduce the rate of carbonic anhydrase II catalyzed CO2 hydration by 50%.
Details: read-out: I50
Consider the following compounds and their measured pIC50 readings.
Units for pIC50: none; it is -log10 of a concentration expressed in mol/L.

[
  {
    "cpdSmiles": "CC(C)(C)C(=O)Oc1ccc2cc(S(N)(=O)=O)sc2c1",
    "number": 8.59
  }
]

Query string: Request the reported pIC50 associated with CC(=O)Oc1ccc2cc(S(N)(=O)=O)sc2c1
Result string: 8.40

---

Here we list molecules with their recorded pIC50 when tested on Carbonic anhydrase 2 (Homo sapiens, UniProt P00918).
Kindly note that pIC50 refers to -log10 of the concentration in mol/L and answer with the value alone.

[
  {
    "molecule": "COc1cccc2sc(S(N)(=O)=O)cc12",
    "pIC50": 7.92
  },
  {
    "molecule": "CC(=O)OCc1ccc2sc(S(N)(=O)=O)cc2c1",
    "pIC50": 8.00
  }
]

Query string: Would you mind telling me what pIC50 value was observed for CN(C)CCSCc1ccc2sc(S(N)(=O)=O)cc2c1 ?
Result string: 7.82

Query string: Repeat for the following molecule: NS(=O)(=O)c1cc2cc(CN3CCOCC3)ccc2s1
Result string: 7.82

Query string: And then CN(C)C(=O)Oc1ccc2sc(S(N)(=O)=O)cc2c1 , what is it?
Result string: 8.30

Query string: Proceed to NS(=O)(=O)c1cc2cccc(O)c2s1
Result string: 7.96

Query string: Param item: CC(C)(C)NCC(O)COc1ccc2cc(S(N)(=O)=O)sc2c1 (stereo unspecified)
Result string: 7.74

Query string: What about CC(C)COC(=O)Oc1ccc2cc(S(N)(=O)=O)sc2c1 ?
Result string: 8.25

Query string: Do the same for NS(=O)(=O)c1cc2ccc(OCC(=O)O)cc2s1 please
Result string: 7.85

Query string: Same question, CC(=O)c1ccc2cc(S(N)(=O)=O)sc2c1 this time
Result string: 8.22

Query string: Also NS(=O)(=O)c1cc2cc(O)ccc2s1 ?
Result string: 8.21
